- Tested on: breast epithelial cell line (MCF-10A)
- Test Description: Crystal violet cytotoxicity towards nontumorigenic MCF-10A
- Assay type: cell-based, human
- Study Conditions: Homo sapiens, MCF-10A; nontumorigenic cells; mean ± S.D. of three separate experiments
Metric: IC50 (µM)
Supply the numeric figure in µM, leaving out any unit text.

# IC50 (compound: Cc1ccc(N=C2SC(=C3C(=O)Nc4ccc(C)cc43)C(=O)N2c2ccc(C)cc2)cc1 ) is 73.1

# IC50 (compound: COc1ccc2c(c1)C(=C1SC(=Nc3ccc(C)cc3)N(c3ccc(C)cc3)C1=O)C(=O)N2 ) is 157

# IC50 (compound: Cc1cc(C)c2c(c1)C(=c1sc3nc4ccccc4n3c1=O)C(=O)N2 ) is 250

# IC50 (compound: COc1ccc2c(c1)C(=C1SC(=Nc3ccccc3)N(c3ccccc3)C1=O)C(=O)N2 ) is 89.6

----------
So I've got a bunch of compounds here, and I need their melting point values.

# melting point (compound: Cc1ccc(N=C2SC(=C3C(=O)Nc4c(C)cc(C)cc43)C(=O)N2c2ccc(C)cc2)cc1 ) is > 300 °C

# melting point (compound: Cc1ccc(N=C2SC(=C3C(=O)Nc4ccc(Cl)cc43)C(=O)N2c2ccc(C)cc2)cc1 ) is > 300 °C

# melting point (compound: O=C1Nc2ccc(Cl)cc2C1=c1sc2nc3ccccc3n2c1=O ) is > 300 °C

# melting point (compound: Cc1ccc(N=C2SC(=C3C(=O)Nc4ccc(F)cc43)C(=O)N2c2ccc(C)cc2)cc1 ) is > 300 °C

# melting point (compound: Cc1ccc2c(c1)C(=c1sc3nc4ccccc4n3c1=O)C(=O)N2 ) is > 300 °C

# melting point (compound: O=C1Nc2ccc(F)cc2C1=C1SC(=Nc2ccccc2)N(c2ccccc2)C1=O ) is > 300 °C

# melting point (compound: Cc1ccc(N=C2SC(=C3C(=O)Nc4ccccc43)C(=O)N2c2ccc(C)cc2)cc1 ) is > 300 °C

# melting point (compound: Cc1cc(C)c2c(c1)C(=C1SC(=Nc3ccccc3)N(c3ccccc3)C1=O)C(=O)N2 ) is > 300 °C

# melting point (compound: COc1ccc2c(c1)C(=c1sc3nc4ccccc4n3c1=O)C(=O)N2 ) is > 300 °C

# melting point (compound: COc1ccc2c(c1)C(=C1SC(=Nc3ccc(C)cc3)N(c3ccc(C)cc3)C1=O)C(=O)N2 ) is > 300 °C

# melting point (compound: Cc1ccc(N=C2SC(=C3C(=O)Nc4ccc(Br)cc43)C(=O)N2c2ccc(C)cc2)cc1 ) is > 300 °C

# melting point (compound: Cc1cc(C)c2c(c1)C(=c1sc3nc4ccccc4n3c1=O)C(=O)N2 ) is > 300 °C

----------
So I've got a bunch of compounds here, and I need their IC50 values.
- System: breast epithelial cell line (MCF-10A)
- Test Description: Crystal violet cytotoxicity towards nontumorigenic MCF-10A
- Format: cell-based, human
- Study Conditions: Homo sapiens, MCF-10A; nontumorigenic cells; mean ± S.D. of three separate experiments
Supply the numeric figure in µM, leaving out any unit text.

# IC50 (compound: Cc1ccc(N=C2SC(=C3C(=O)Nc4c(C)cc(C)cc43)C(=O)N2c2ccc(C)cc2)cc1 ) is 154

# IC50 (compound: O=C1Nc2ccc(Cl)cc2C1=c1sc2nc3ccccc3n2c1=O ) is 234

# IC50 (compound: Cc1ccc2c(c1)C(=c1sc3nc4ccccc4n3c1=O)C(=O)N2 ) is 242
